Target: 5-hydroxytryptamine receptor 3A (Homo sapiens, UniProt P46098)
Sequence (P46098 whole entry): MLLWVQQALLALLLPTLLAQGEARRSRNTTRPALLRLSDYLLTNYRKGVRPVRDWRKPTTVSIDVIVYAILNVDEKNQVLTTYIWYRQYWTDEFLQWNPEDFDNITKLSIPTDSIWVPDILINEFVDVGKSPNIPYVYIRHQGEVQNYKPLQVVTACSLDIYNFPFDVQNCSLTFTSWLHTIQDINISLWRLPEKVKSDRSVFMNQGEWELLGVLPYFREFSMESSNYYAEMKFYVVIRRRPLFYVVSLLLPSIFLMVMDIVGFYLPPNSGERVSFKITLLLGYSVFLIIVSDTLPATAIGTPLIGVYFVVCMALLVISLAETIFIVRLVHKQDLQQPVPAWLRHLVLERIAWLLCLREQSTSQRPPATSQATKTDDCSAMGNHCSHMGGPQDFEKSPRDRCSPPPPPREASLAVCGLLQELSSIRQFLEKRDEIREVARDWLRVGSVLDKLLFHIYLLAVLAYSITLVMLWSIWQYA
Test: Antagonist activity at human 5HT3A receptor expressed in HEK293 cells by FLIPR assay
property.name: IC50

# count of solved cases: 5
• O=C(NCCCCN1CCCCC1)Nc1ccc(-c2ccc(F)nc2)nc1 = > 30 µM
• COc1ccccc1-c1ccc(NC(=O)NCCCCN2CCCCC2)cn1 = > 30 µM
• O=C(NCCCCN1CCCCC1)Nc1ccc(-c2ccccn2)cc1 = > 30 µM
• O=C(NCCCCN1CCCCC1)Nc1ccc(-c2ccc(F)nc2)cc1 = > 30 µM
• O=C(NCCCCN1CCCCC1)Nc1ccc(-c2ccccc2F)cc1 = 5.7 µM

For the record `O=C(NCCCCN1CCCCC1)Nc1ccc(-c2ccccc2)nc1` , what value of IC50 is listed for 5-hydroxytryptamine receptor 3A (Homo sapiens, UniProt P46098)?
> 30 µM
